Kindly state OD at 10 nM for each of the entries shown.
target: T1, hPD-1-his (human, UniProt Q15116 25-167); assay: ELISA, PD-1-his on streptavidin
T1 construct: domain: IgV domain; monomer in solution; biotin-labelled where captured by streptavidin; also called biotin-hPD-1-his
T1 sequence (Q15116 other isoform, or with tags, fused parts or gaps limits assumed): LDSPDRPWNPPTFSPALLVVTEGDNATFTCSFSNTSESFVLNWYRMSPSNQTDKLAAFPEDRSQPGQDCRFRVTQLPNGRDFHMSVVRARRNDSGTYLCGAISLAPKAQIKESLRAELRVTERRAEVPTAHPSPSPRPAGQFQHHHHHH
Quick reminder: number only, in OD, skip the unit.

Prompt: Using the record for 39B11 (antibody, V domains shown) VH: EVQLLESGGGLVQPGGSLRLSCAASGFTFSSYWMSWVRQAPGKGLEWVSAISGSGGSTYYADSVKGRFTISRDNSKNTLYLQMNSLRAEDTAVYYCASSPLQWVDVWGQGTTVTVSS VL: DIQMTQSPSSLSASVGDRVTITCRASQSISSWLAWYQQKPGKAPKLLIYEASRLQSGVPSRFSGSGSGTDFTLTISSLQPEDFATYYCQQANSFPFTFGPGTKVDIK , report its OD at 10 nM.
Response: 0.99

Prompt: Using the record for 39B3 (antibody, V domains shown) VH: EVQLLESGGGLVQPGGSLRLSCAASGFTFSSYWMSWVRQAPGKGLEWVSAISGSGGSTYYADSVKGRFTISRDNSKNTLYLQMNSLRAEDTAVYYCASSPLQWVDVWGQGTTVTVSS VL: DIQMTQSPSSLSASVGDRVTITCRASQSIGPWLAWYQQKPGKAPKLLIYDASNLETGVPSRFSGSGSGTDFTLTISSLQPEDFATYYCQQANSFPFTFGPGTKVDIK , report its OD at 10 nM.
Response: 0.963
